Origin of measurements: ChEMBL document CHEMBL1153003

- Tested on: Calf thymus DNA
- run description: Displacement of ethidium bromide from calf thymus DNA
- Assay type: nucleic-acid assay
- experimental context: Bos taurus
assay endpoint: logKA
Hey, just send me the number, nothing else.

input: Tell me the measured logKA of "c1ccc2c(c1)nc(CN1CCCCC1)n1c3ccccc3nc21" , please.
output: 5.94

input: Tell me the measured logKA of "CN1CCN(Cc2nc3ccccc3c3nc4ccccc4n23)CC1" , please.
output: 5.82

input: Tell me the measured logKA of "CN1CCN(CCc2nc3ccccc3c3nc4ccccc4n23)CC1" , please.
output: 6.28

input: Tell me the measured logKA of "O=C(CN1CCOCC1)Nc1ccccc1-c1nc2ccccc2[nH]1" , please.
output: 4.68

input: Tell me the measured logKA of "CC1CCN(Cc2nc3ccccc3c3nc4ccccc4n23)CC1" , please.
output: 5.93

input: Tell me the measured logKA of CC1CCCCN1Cc1nc2ccccc2c2nc3ccccc3n12 (stereo not drawn) , please.
output: 5.75

input: Tell me the measured logKA of "CC1CCN(CC(=O)Nc2ccccc2-c2nc3ccccc3[nH]2)CC1" , please.
output: 4.94

input: Tell me the measured logKA of "CC1CCN(CCC(=O)Nc2ccccc2-c2nc3ccccc3[nH]2)CC1" , please.
output: 4.93
